These data points were gathered from patent US20050119253A1.

molecular target: D3 (Homo sapiens); test: pKi of test compounds, D3 receptor; type: binding; conditions: read-out: pKi D3 (converted)
Sequence (P35462 whole entry): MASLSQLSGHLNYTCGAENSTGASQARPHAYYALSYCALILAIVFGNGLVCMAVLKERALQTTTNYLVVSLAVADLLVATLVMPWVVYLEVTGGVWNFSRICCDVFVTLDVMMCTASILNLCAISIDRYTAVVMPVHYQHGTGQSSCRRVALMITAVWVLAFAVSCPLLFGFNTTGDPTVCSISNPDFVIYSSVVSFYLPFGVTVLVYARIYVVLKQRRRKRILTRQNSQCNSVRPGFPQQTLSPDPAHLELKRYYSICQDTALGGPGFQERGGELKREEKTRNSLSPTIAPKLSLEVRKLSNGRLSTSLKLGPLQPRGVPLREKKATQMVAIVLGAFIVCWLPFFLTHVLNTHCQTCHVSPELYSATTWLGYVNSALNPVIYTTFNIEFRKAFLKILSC
Listed below: Ki values for each entry.

In the examples that follow, each entry is paired with its recorded Ki.
Compound | Reported
CN1CC2c3ccccc3Oc3ccc(Cl)cc3C2C1 (centres unmarked) | 1 to 10 nM
NC(=O)C1(N2CCCCC2)CCN(CCCC(=O)c2ccc(F)cc2)CC1 | 100 to 1000 nM
CCNC(=O)N1CCN(CCCC(c2ccc(F)cc2)c2ccc(F)cc2)CC1 [Amperozide] | 100 to 1000 nM
CCN1CCC[C@H]1CNC(=O)c1c(O)c(Cl)cc(Cl)c1OC [Raciopride] | 1 to 10 nM

### Prompt Output measured Ki for this item: "Cc1nc2c(C)cccn2c(=O)c1CCN1CCC(c2noc3cc(F)ccc23)CC1"
### Response 1 to 10 nM
